Test system: HepG2, HCC
Test: In vitro assays - TubOEt analogues, CellTiter-Glo growth inhibition
Type: cell-based
Details: Homo sapiens, Table 3, lantern-made analogues >85% purity, 96 hour exposure
Listing: pIC50 of selected molecules
Scale note: pIC50 = -log10(concentration in M).

Example entries begin here.
CCO[C@H](C[C@H](C(C)C)N(C)C(=O)[C@@H](NC(=O)[C@H]1CCCCN1C)C(CC)CC)c1nc(C(=O)N[C@@H](Cc2ccccc2)C[C@H](C)C(=O)O)cs1
8.10
CCO[C@H](C[C@H](C(C)C)N(C)C(=O)[C@H](CC1CC1)NC(=O)[C@H]1CCCCN1C)c1nc(C(=O)N[C@@H](Cc2ccccc2)C[C@H](C)C(=O)O)cs1
7.72
CCO[C@H](C[C@H](C(C)C)N(C)C(=O)[C@@H](NC(=O)[C@H]1[C@@H]2CC[C@@H](C2)N1C)[C@@H](C)CC)c1nc(C(=O)N[C@@H](Cc2ccccc2)C[C@H](C)C(=O)O)cs1
7.72
CCO[C@H](C[C@H](C(C)C)N(C)C(=O)[C@@H](NC(=O)[C@@H](C(C)C)N(C)C)[C@@H](C)CC)c1nc(C(=O)N[C@@H](Cc2ccccc2)C[C@H](C)C(=O)O)cs1
7.39
CCO[C@H](C[C@H](C(C)C)N(C)C(=O)[C@@H](NC(=O)[C@H]1CCCCN1C)[C@H](C)OC)c1nc(C(=O)N[C@@H](Cc2ccccc2)C[C@H](C)C(=O)O)cs1
7.39

Exercise: Which pIC50 is reported for this molecule? CCO[C@H](C[C@H](C(C)C)N(C)C(=O)[C@@H](NC(=O)[C@H]1CCCCN1C)[C@@H](C)OC)c1nc(C(=O)N[C@@H](Cc2ccccc2)C[C@H](C)C(=O)O)cs1
Key: 7.34

---

System: HepG2, HCC
Experiment: In vitro assays - TubOEt analogues, CellTiter-Glo growth inhibition
Type: cell-based
Settings: Homo sapiens, Table 3, lantern-made analogues >85% purity, 96 hour exposure
Listing: pIC50 of selected compounds
Scale note: pIC50 = -log10(concentration in M).

CCO[C@H](C[C@H](C(C)C)N(C)C(=O)C(NC(=O)[C@H]1CCCCN1C)C12CC(F)(C1)C2)c1nc(C(=O)N[C@@H](Cc2ccccc2)C[C@H](C)C(=O)O)cs1 (stereo partly drawn) [Compound 211]
7.85

Exercise: Which pIC50 is reported for this compound? CCO[C@H](C[C@H](C(C)C)N(C)C(=O)[C@@H](NC(=O)C12CC(CCN1C)C2)[C@@H](C)CC)c1nc(C(=O)N[C@@H](Cc2ccccc2)C[C@H](C)C(=O)O)cs1 [Compound 217]
Key: 8.70

Exercise: Next up: CCO[C@H](C[C@H](C(C)C)N(C)C(=O)[C@@H](NC(=O)[C@@]1(C)CCCN1C)[C@@H](C)CC)c1nc(C(=O)N[C@@H](Cc2ccccc2)C[C@H](C)C(=O)O)cs1 [Compound 221]
Key: 8.40

---

Test system: L540cy, HL
Test: In vitro assays - tubulysin free drugs, CellTiter-Glo growth inhibition
Format: cell-based
Details: L540cy, 96 h, Table 3; lantern-made analogues >85% purity, 96 hour exposure
Listing: IC50 of selected molecules

Example entries begin here.
CCO[C@H](C[C@H](C(C)C)N(C)C(=O)[C@@H](NC(=O)[C@H]1[C@H]2CC[C@H](CC2)N1C)[C@@H](C)CC)c1nc(C(=O)N[C@@H](Cc2ccccc2)C[C@H](C)C(=O)O)cs1
5 nM
CCO[C@H](C[C@H](C(C)C)N(C)C(=O)[C@@H](NC(=O)[C@H]1CCCCN1C)C1Cc2ccccc2C1)c1nc(C(=O)N[C@@H](Cc2ccccc2)C[C@H](C)C(=O)O)cs1
58 nM
CCO[C@H](C[C@H](C(C)C)N(C)C(=O)[C@@H](NC(=O)[C@H]1CCCCN1C)[C@@H](C)OC)c1nc(C(=O)N[C@@H](Cc2ccccc2)C[C@H](C)C(=O)O)cs1
6 nM
CCO[C@H](C[C@H](C(C)C)N(C)C(=O)C(NC(=O)[C@H]1CCCCN1C)C12CC(F)(C1)C2)c1nc(C(=O)N[C@@H](Cc2ccccc2)C[C@H](C)C(=O)O)cs1 (stereo partly shown)
2 nM
CCO[C@H](C[C@H](C(C)C)N(C)C(=O)[C@@H](NC(=O)C12CC(CCN1C)C2)[C@@H](C)CC)c1nc(C(=O)N[C@@H](Cc2ccccc2)C[C@H](C)C(=O)O)cs1
1 nM

Exercise: Which IC50 is reported for this molecule? CCO[C@H](C[C@H](C(C)C)N(C)C(=O)[C@@H](NC(=O)[C@@]1(C)CCCN1C)[C@@H](C)CC)c1nc(C(=O)N[C@@H](Cc2ccccc2)C[C@H](C)C(=O)O)cs1
Key: 1 nM

Exercise: Next up: CCO[C@H](C[C@H](C(C)C)N(C)C(=O)[C@@H](NC(=O)C1CCC(F)(F)CN1C)[C@@H](C)CC)c1nc(C(=O)N[C@@H](Cc2ccccc2)C[C@H](C)C(=O)O)cs1 (stereo partly shown)
Key: 12 nM

Exercise: Next up: CCO[C@H](C[C@H](C(C)C)N(C)C(=O)[C@@H](NC(=O)[C@H]1CCCCN1C)C(CC)CC)c1nc(C(=O)N[C@@H](Cc2ccccc2)C[C@H](C)C(=O)O)cs1
Key: 1 nM

Exercise: Next up: CCO[C@H](C[C@H](C(C)C)N(C)C(=O)[C@@H](NC(=O)[C@H]1CCCCN1C)C1CCOCC1)c1nc(C(=O)N[C@@H](Cc2ccccc2)C[C@H](C)C(=O)O)cs1
Key: > 1000 nM

Exercise: Next up: CCO[C@H](C[C@H](C(C)C)N(C)C(=O)[C@@H](NC(=O)[C@H]1CCCCN1C)[C@H](C)CC)c1nc(C(=O)N[C@@H](Cc2ccccc2)C[C@H](C)C(=O)O)cs1
Key: 12 nM

Exercise: Next up: CCO[C@H](C[C@H](C(C)C)N(C)C(=O)[C@@H](NC(=O)[C@H]1CCCCN1C)C1CCCC1)c1nc(C(=O)N[C@@H](Cc2ccccc2)C[C@H](C)C(=O)O)cs1
Key: 0.4 nM

Exercise: Next up: CCO[C@H](C[C@H](C(C)C)N(C)C(=O)[C@@H](NC(=O)[C@H]1CCCCN1C)[C@H](C)OC(C)(C)C)c1nc(C(=O)N[C@@H](Cc2ccccc2)C[C@H](C)C(=O)O)cs1
Key: 30 nM

Exercise: Next up: CCO[C@H](C[C@H](C(C)C)N(C)C(=O)[C@@H](NC(=O)[C@H]1CCCCN1C)C1CCCCC1)c1nc(C(=O)N[C@@H](Cc2ccccc2)C[C@H](C)C(=O)O)cs1
Key: 1 nM

Exercise: Next up: CCO[C@H](C[C@H](C(C)C)N(C)C(=O)[C@@H](NC(=O)[C@@H](C(C)C)N(C)C)[C@@H](C)CC)c1nc(C(=O)N[C@@H](Cc2ccccc2)C[C@H](C)C(=O)O)cs1
Key: 13 nM

Exercise: Next up: CCO[C@H](C[C@H](C(C)C)N(C)C(=O)[C@H](CC1CCCCC1)NC(=O)[C@H]1CCCCN1C)c1nc(C(=O)N[C@@H](Cc2ccccc2)C[C@H](C)C(=O)O)cs1
Key: 20 nM

Exercise: Next up: CCO[C@H](C[C@H](C(C)C)N(C)C(=O)[C@@H](NC(=O)[C@H]1[C@@H]2CC[C@@H](C2)N1C)[C@@H](C)CC)c1nc(C(=O)N[C@@H](Cc2ccccc2)C[C@H](C)C(=O)O)cs1
Key: 6 nM

Exercise: Next up: CCO[C@H](C[C@H](C(C)C)N(C)C(=O)[C@@H](NC(=O)[C@H]1CCCCN1C)[C@H](C)OC)c1nc(C(=O)N[C@@H](Cc2ccccc2)C[C@H](C)C(=O)O)cs1
Key: 6 nM

Exercise: Next up: CCO[C@H](C[C@H](C(C)C)N(C)C(=O)[C@@H](NC(=O)[C@H]1CCCCN1C)[C@@H](C)OC(C)(C)C)c1nc(C(=O)N[C@@H](Cc2ccccc2)C[C@H](C)C(=O)O)cs1
Key: 0.2 nM

Exercise: Next up: CCO[C@H](C[C@H](C(C)C)N(C)C(=O)[C@H](CC1CC1)NC(=O)[C@H]1CCCCN1C)c1nc(C(=O)N[C@@H](Cc2ccccc2)C[C@H](C)C(=O)O)cs1
Key: 2 nM

---

System: Karpas299, ALCL
Assay: In vitro assays - tubulysin free drugs, CellTiter-Glo growth inhibition
Assay type: cell-based
Conditions: Homo sapiens, KARPAS-299, 96 h, Table 2; free drug, 96 hour exposure
METRIC_NAME: pIC50
Scale note: pIC50 = -log10(concentration in M).

Example entries begin here.
C=CCO[C@H](C[C@H](C(C)C)N(C)C(=O)[C@@H](NC(=O)[C@H]1CCCCN1C)[C@@H](C)CC)c1nc(C(=O)N[C@@H](Cc2ccccc2)C[C@H](C)C(=O)O)cs1
10.70
C#CCO[C@H](C[C@H](C(C)C)N(C)C(=O)[C@@H](NC(=O)[C@H]1CCCCN1C)[C@@H](C)CC)c1nc(C(=O)N[C@@H](Cc2ccccc2)C[C@H](C)C(=O)O)cs1
10.30
CC[C@H](C)[C@H](NC(=O)[C@H]1CCCCN1C)C(=O)N(C)[C@H](C[C@@H](OCc1ccccc1)c1nc(C(=O)N[C@@H](Cc2ccccc2)C[C@H](C)C(=O)O)cs1)C(C)C
10.10
CC[C@H](C)[C@H](NC(=O)[C@H]1CCCCN1C)C(=O)N(C)[C@H](C[C@@H](OC(=O)CC(C)(C)C)c1nc(C(=O)N[C@@H](Cc2ccccc2)C[C@H](C)C(=O)O)cs1)C(C)C
9.74

Now consider the entry below.
Exercise: Which pIC50 is reported for this compound? CC[C@H](C)[C@H](NC(=O)[C@H]1CCCCN1C)C(=O)N(C)[C@H](C[C@@H](OC(=O)C(C)C)c1nc(C(=O)N[C@@H](Cc2ccccc2)C[C@H](C)C(=O)O)cs1)C(C)C
Key: 10.70
